Where these numbers come from: ChEMBL document CHEMBL1201862

Test system: HT-29
Test: NCI tumour cell line growth inhibition, 48 h
The source made the active and inactive calls. No stated cut-off is given here; in the data, active = GI50 up to about 1.1 µM and inactive = higher.
Reply using exactly one outcome from active, inactive

Prompt: What outcome does the record of this test show for `C=C1C(=O)O[C@@H]2C=C(C)C3=CC(=O)[C@](C)(C[C@H](OC(=O)/C(C)=C\C)[C@@H]12)O3` ?
Completion: active

Prompt: What outcome does the record of this test show for `Nc1c(Cl)cc(-c2nc3ccccc3s2)cc1Cl` ?
Completion: inactive

Prompt: What outcome does the record of this test show for OC1OC(c2ccco2)C(F)(F)C(F)(F)C1(F)F (stereo not drawn) ?
Completion: inactive

Prompt: What outcome does the record of this test show for `COc1ccccc1/C=C\c1cc(OC)c(OC)c(OC)c1` ?
Completion: inactive

Prompt: What outcome does the record of this test show for `CCOC(=O)N1CCN(C(=O)Nc2cccc3ccccc23)CC1` ?
Completion: inactive

Prompt: What outcome does the record of this test show for CC(C)=CCC12Cc3ccc(O)cc3C(C(C)CN1)C2C (stereo not drawn) ?
Completion: inactive

Prompt: What outcome does the record of this test show for `C[N+]1(C)CC=C(N2CCOCC2)CC1` ?
Completion: inactive

Prompt: What outcome does the record of this test show for `O=C(/N=N/c1ccc(Cl)cc1Cl)NNc1ccc(Cl)cc1Cl` ?
Completion: inactive

Prompt: What outcome does the record of this test show for `NC(=O)Nc1ccc(C(=O)NCCCNC(=O)c2ccc(NC(N)=O)cc2)cc1` ?
Completion: inactive

Prompt: What outcome does the record of this test show for CCN(CC)CCC1(C2CCCCC2)CCC(=O)NC1=O (stereo not drawn) ?
Completion: inactive

Prompt: What outcome does the record of this test show for `CC(C)CNC(=O)O` ?
Completion: inactive

Prompt: What outcome does the record of this test show for `CN(C)c1ccc(/C=c2\sc3nc4ccccc4n3c2=O)cc1` ?
Completion: inactive

Prompt: What outcome does the record of this test show for Nc1ccn(C2OC(C(OC3OC(CO)C(O)C(N)C3O)C(O)C(O)C(O)C(O)CO)C(N)C(O)C2O)c(=O)n1 (stereo not drawn) ?
Completion: inactive

Prompt: What outcome does the record of this test show for `Cc1cccc(C)c1NC(=O)C(=O)CC(=O)c1sc(Nc2c(C)cccc2C)nc1C` ?
Completion: inactive

Prompt: What outcome does the record of this test show for `COc1ccc2c(c1)[n+]([O-])c(-c1ccc(Cl)c(Cl)c1)c(N)[n+]2[O-]` ?
Completion: inactive

Prompt: What outcome does the record of this test show for `CC(=O)c1sc2c(c1OC(=O)c1ccccc1)c(=O)n(-c1ccccc1)c(=S)n2-c1ccccc1` ?
Completion: inactive

Prompt: What outcome does the record of this test show for `O=c1c2ncn(CCCl)c2n(-c2ccccc2)c(=S)n1-c1ccccc1` ?
Completion: inactive

Prompt: What outcome does the record of this test show for `O=C(O)CNc1ccc(C(=O)O)cc1` ?
Completion: inactive

Prompt: What outcome does the record of this test show for CC12CCC(C/C1=N\NC(N)=O)C2(C)C (stereo not drawn) ?
Completion: inactive

Prompt: What outcome does the record of this test show for CC1[C@@]2(CCC(C)(C)O2)O[C@@H]2C=C3C4CCC5Cc6nc7c(nc6C[C@@]5(C)C4C[C@H](O)[C@@]3(C)[C@]12O)CC1CCC2C3=C[C@H]4O[C@@]5(O[C@@](C)(CO)C[C@@H]5O)C(C)[C@@]4(O)[C@]3(C)[C@@H](O)CC2[C@]1(C)C7 (stereo partly drawn) ?
Completion: active

Prompt: What outcome does the record of this test show for `CCN(CC)CCNc1ccc([N+](=O)[O-])c2nc3ccccc3c(N)c12` ?
Completion: active

Prompt: What outcome does the record of this test show for `COc1cc(C=C2N=C(c3ccccc3)N(n3c(-c4ccccc4)nc4ccccc4c3=O)C2=O)cc(OC)c1OC` ?
Completion: inactive

Prompt: What outcome does the record of this test show for `NC(C(F)(F)F)(C(F)(F)F)P(=O)(Cc1ccccc1)Cc1ccccc1` ?
Completion: inactive

Prompt: What outcome does the record of this test show for O=C1CC(C2(O)C(=O)Nc3ccc([N+](=O)[O-])cc32)c2ccccc21 (stereo not drawn) ?
Completion: inactive

Prompt: What outcome does the record of this test show for `NC(=O)Nc1c([N+](=O)[O-])cc(C(F)(F)F)cc1[N+](=O)[O-]` ?
Completion: inactive

Prompt: What outcome does the record of this test show for CC(=O)C(CN(CC(C)C)CC(C)C)C(c1ccccc1)c1c(O)c2ccccc2oc1=O (stereo not drawn) ?
Completion: inactive

Prompt: What outcome does the record of this test show for `CC[C@](O)(CC(=O)O[C@H]1C(=O)O[C@@H]2C[C@H]3C(C)=CC(=O)[C@@H](O)[C@]3(C)[C@H]3[C@@]4(O)OC[C@]32[C@@H]1[C@@H](C)[C@H]4O)C(C)C` ?
Completion: active

Prompt: What outcome does the record of this test show for `COc1cc2c(cc1O)[C@@H]1Cc3c(cc(OC)c(OC)c3Oc3cc4c(cc3OC)CCN(C)[C@@H]4Cc3ccc(O)cc3)[C@H](C2)N1C` ?
Completion: inactive

Prompt: What outcome does the record of this test show for CCCCCCCCP(=O)(O)OP(=O)(O)OCC1OC(n2ccc(N)nc2=O)C(O)C1O (stereo not drawn) ?
Completion: inactive

Prompt: What outcome does the record of this test show for `Clc1ccc(Nc2nnc(CCCCCCCCc3nnc(Nc4ccc(Cl)cc4)o3)o2)cc1` ?
Completion: inactive

Prompt: What outcome does the record of this test show for `N/C(=N\O)N/N=C/c1cc(I)cc(I)c1O` ?
Completion: inactive

Prompt: What outcome does the record of this test show for C/C=C1/C=CC2c3[nH]c4ccccc4c3CCN2C1 (stereo not drawn) ?
Completion: inactive

Prompt: What outcome does the record of this test show for Cc1c(N)nc([C@H](CC(N)=O)NC[C@H](N)C(N)=O)nc1C(=O)N[C@H](C(=O)N[C@H](C)[C@@H](O)[C@H](C)C(=O)N[C@H](C(=O)NCCc1nc(-c2nc(C(=O)NCCC[S+](C)C)cs2)cs1)[C@@H](C)O)C(OC1OC(CO)C(O)C(O)C1OC1OC(CO)C(O)C(OC(N)=O)C1O)c1c[nH]cn1 (stereo partly drawn) ?
Completion: inactive

Prompt: What outcome does the record of this test show for `CSc1nc(=S)[nH]c2[nH]nc(C)c12` ?
Completion: inactive

Prompt: What outcome does the record of this test show for CC(=O)NC1C(OCc2ccccc2)OC(CO)C(O)C1OCC(=O)N[C@@H](C)C(=O)N[C@H](CCC(=O)NCCNc1ccc([N+](=O)[O-])c2[nH]c3ccccc3c(=O)c12)C(N)=O (stereo partly drawn) ?
Completion: inactive

Prompt: What outcome does the record of this test show for `OCc1ccc(-c2ccc(-c3ccc(CO)s3)o2)s1` ?
Completion: active

Prompt: What outcome does the record of this test show for `CCN1/C(=C/C#C/C(C)=C\c2sc3ccccc3[n+]2CC)Sc2ccccc21` ?
Completion: inactive

Prompt: What outcome does the record of this test show for `Nc1ccc(/N=N/c2ccccc2)cc1` ?
Completion: inactive

###

Test system: OVCAR-3
Experiment: NCI tumour cell line growth inhibition, 48 h
The source made the active and inactive calls. Cut-off read from the data, not from the text of the source: active = GI50 up to about 1.1 µM and inactive = higher.
Reply using exactly one outcome from active, inactive

Prompt: What outcome does the record of this test show for `CN1C(=O)c2c(c3c4ccccc4n(C)c3c3c2c2ccccc2n3C)C1=O` ?
Completion: inactive

Prompt: What outcome does the record of this test show for CC(C)C1OC(=O)/C=C/C=C/C=C/C=C/C=C/CC(O)C(C)C(O)CC(O)CC(O)CC(O)CC(O)CC(O)CC(O)/C=C/C1C (centres undefined) ?
Completion: inactive

Prompt: What outcome does the record of this test show for `CCNC(=O)c1cc(/C=C/c2ccc([N+](=O)[O-])o2)nc2ccccc12` ?
Completion: inactive

Prompt: What outcome does the record of this test show for `CCNC(=O)N(CC)CN(CC)C(=O)NCC` ?
Completion: inactive

Prompt: What outcome does the record of this test show for `CCCCCCOc1ccc(C(=O)NOCc2ccccc2)cc1` ?
Completion: inactive

Prompt: What outcome does the record of this test show for `CC(C)=CCC/C(C)=C/Cc1cc(/C=C/c2cc(O)c(CC=C(C)C)c(O)c2)cc(O)c1O` ?
Completion: inactive

Prompt: What outcome does the record of this test show for `O=c1[nH]/c(=C/c2ccc(OCc3ccccc3)cn2)c(=O)[nH]/c1=C/c1ccc([N+](=O)[O-])cc1` ?
Completion: inactive

Prompt: What outcome does the record of this test show for C=C1C(OC2O[C@@H]3O[C@@]4(C)CC[C@H]5[C@H](C)CC[C@@H](C2=C)[C@@]35O4)O[C@@H]2O[C@@]3(C)CC[C@H]4[C@H](C)CC[C@@H]1[C@@]24O3 (some centres undefined) ?
Completion: inactive

Prompt: What outcome does the record of this test show for `O=C(NS(=O)(=O)Nc1ccc(Cl)cc1)OCc1ccc(Cl)cc1Cl` ?
Completion: inactive

Prompt: What outcome does the record of this test show for `CC(=O)C1=C(O)/C(=C\c2ccco2)OC1=O` ?
Completion: inactive

Prompt: What outcome does the record of this test show for C=CCN1C(=O)/C(=C/c2cccs2)N=C1SC1OC(COC(=O)c2ccccc2)C(OC(=O)c2ccccc2)C1OC(=O)c1ccccc1 (centres undefined) ?
Completion: inactive

Prompt: What outcome does the record of this test show for OC1OC(c2ccco2)C(F)(F)C(F)(F)C1(F)F (centres undefined) ?
Completion: inactive

Prompt: What outcome does the record of this test show for Cc1ccccc1C1=C(C(=O)Nc2ccc(Cl)c(Cl)c2)NC(=S)NC1N (centres undefined) ?
Completion: inactive

Prompt: What outcome does the record of this test show for COC(=O)C(Cc1c[nH]c2ccccc12)NP(=O)(O)OCC1OC(n2cc(I)c(=O)[nH]c2=O)CC1O (centres undefined) ?
Completion: inactive

Prompt: What outcome does the record of this test show for `CCOC(=O)N1CCN(c2c(C)nc(C)nc2O)CC1` ?
Completion: inactive

Prompt: What outcome does the record of this test show for `Cc1ccc2c(ccc(/C=C/c3ccc(O)c4ncccc34)[n+]2C)c1` ?
Completion: active

Prompt: What outcome does the record of this test show for `COc1ccc2oc(=O)c(-c3nc4ccccc4o3)cc2c1` ?
Completion: inactive

Prompt: What outcome does the record of this test show for `Cc1c2c3ccccc3nc-2n(C)c2ccccc12` ?
Completion: inactive

Prompt: What outcome does the record of this test show for `COc1cccc(/N=N/C(=N/NC(=O)c2ccc(C)cc2)c2ccc(N(CCC#N)CCC#N)cc2OC)c1` ?
Completion: inactive
